Measured pest or weed control at 250 g/ha accompanies every entry in the list below.
Tested on: sedge, umbrella
Assay: Test B flooded paddy test
Type: in vivo, Cyperus difformis
Settings: Cyperus difformis, 312 h; 250 g ai/ha, Flood, 13 days, 0 to 100 scale (0 no effect, 100 complete control); read-out: Plant response rating, Sedge, Umbrella
Lab book: enter the figure in %, no units written.

{"molecule": "C[C@H]1CN(C(=O)c2cccc(-c3cnn(C)n3)c2)c2cccc(Cl)c2O1 [Compound 127]", "target-entity": "sedge, umbrella", "value-measured": 0}
{"molecule": "C[C@H]1CN(C(=S)c2cccc(-n3cncn3)c2)c2cccc(Cl)c2O1 [Compound 139]", "target-entity": "sedge, umbrella", "value-measured": 75}
{"molecule": "COCc1ncn(-c2cccc(C(=O)N3C[C@H](C)Oc4c(C)cccc43)c2)n1 [Compound 101]", "target-entity": "sedge, umbrella", "value-measured": 85}
{"molecule": "Cc1ccc(-n2cnc(C(C)(C)C)n2)cc1C(=O)N1C[C@H](C)Oc2c(Cl)cccc21 [Compound 76]", "target-entity": "sedge, umbrella", "value-measured": 98}
{"molecule": "C[C@H]1CN(C(=O)c2cccc(-n3cnc(C4CCC4)n3)c2)c2cccc(Cl)c2O1 [Compound 93]", "target-entity": "sedge, umbrella", "value-measured": 0}

Request: Param item = Cc1cccc2c1O[C@@H](C)CN2C(=O)c1cccc(-n2cnc(Br)n2)c1 [Compound 61] ; retrieve measured pest or weed control at 250 g/ha.
Result: 45

Request: Please give the result for Cc1ccc(-n2cnc(C3CCC3)n2)cc1C(=O)N1C[C@H](C)Oc2c(Cl)cccc21 [Compound 96] too.
Result: 98

Request: Please give the result for C[C@H]1CN(C(=O)c2cccc(-n3cncn3)c2)c2cccc(Cl)c2O1 [Compound 18] too.
Result: 0

Request: Please give the result for Cc1cccc2c1O[C@@H](C)CN2C(=O)c1cccc(-n2cn[nH]c2=O)c1 [Compound 122] too.
Result: 0

---

System: green foxtail
Test: Test C preemergence
Type: in vivo, Setaria viridis
Conditions: Test C, preemergence, 125 g ai/ha; 0 to 100 scale (0 no effect, 100 complete control)
metric: Foxtail, Green plant response rating
Keep the answer to the number alone.

{"molecule": "COC(=O)N(C)c1ncn(-c2cccc(C(=O)N3C[C@H](C)Oc4c(C)cccc43)c2)n1", "metric": "Foxtail, Green plant response rating", "value-measured": 80}
{"molecule": "CC(C)c1ncn(-c2cccc(C(=O)N3CC(C(F)(F)F)Oc4c(Cl)cccc43)c2)n1 (single isomer, unassigned) [Compound 288]", "metric": "Foxtail, Green plant response rating", "value-measured": 0}
{"molecule": "COc1ccc(-n2cnc(C(C)C)n2)cc1C(=O)N1C[C@H](C)Oc2c(C)cccc21", "metric": "Foxtail, Green plant response rating", "value-measured": 100}
{"molecule": "CCc1ncn(-c2cc3c(c(C(=O)N4C[C@H](C)Oc5c(Cl)cccc54)c2)OCCO3)n1", "metric": "Foxtail, Green plant response rating", "value-measured": 100}
{"molecule": "Cc1cccc2c1OC(C(F)(F)F)CN2C(=O)c1cccc(-n2cnc(C(C)C)n2)c1 (racemic) [Compound 301]", "metric": "Foxtail, Green plant response rating", "value-measured": 100}

Request: Param item = Cc1cccc2c1O[C@@H](C)CN2C(=O)c1cccc(-n2cnc(N(C)S(C)(=O)=O)n2)c1 ; retrieve measured Foxtail, Green plant response rating.
Result: 60

Request: Please give the result for COc1cc(C(=O)N2C[C@H](C)Oc3c(Cl)cccc32)cc(-n2cnc(C(C)C)n2)c1 too.
Result: 100

---

Measured Plant response rating, Horseweed accompanies every entry in the list below.
System: horseweed
Test: Test C postemergence
Format: in vivo, Erigeron canadensis
Conditions: Postemergence, 125 g ai/ha; 0 to 100 scale (0 no effect, 100 complete control), 10 days
Keep the answer to the number alone.

{"molecule": "COC[C@H]1CN(C(=O)c2cc(-n3cnc(C(C)(C)C)n3)cc3c2OCCO3)c2cccc(Cl)c2O1 [Compound 382]", "metric": "Plant response rating, Horseweed", "value-measured": 50}
{"molecule": "Cc1ncn(-c2ccc(C)c(C(=O)N3CC(C(F)(F)F)Oc4c(Cl)cccc43)c2)n1 (stereo not shown) [Compound 349]", "metric": "Plant response rating, Horseweed", "value-measured": 10}
{"molecule": "CC(C)Oc1ncn(-c2cccc(C(=O)N3C[C@H](C)Oc4c(Cl)cccc43)c2)n1 [Compound 312]", "metric": "Plant response rating, Horseweed", "value-measured": 0}

Let us move to another entry and its Plant response rating, Horseweed.
Request: Param item = CCOC[C@H]1CN(C(=O)c2cc(-n3cnc(CC)n3)ccc2C)c2cccc(Cl)c2O1 [Compound 412] ; retrieve measured Plant response rating, Horseweed.
Result: 20

---

Tested on: oat, wild
Test: Test C preemergence
Type: in vivo, Avena fatua
Conditions: Test C, preemergence, 125 g ai/ha; 0 to 100 scale (0 no effect, 100 complete control)
Measured Oat, Wild plant response rating accompanies every entry in the list below.
Keep the answer to the number alone.

Request: Param item = Cc1ccc(-n2cnc(C(C)(C)C)n2)cc1C(=O)N1CC(C(F)(F)F)Oc2c(Cl)cccc21 (single isomer, unassigned) [Compound 192] ; retrieve measured Oat, Wild plant response rating.
Result: 40

---

System: ryegrass, Italian
Test: Test C postemergence
Format: in vivo, Lolium multiflorum
Settings: 125 g ai/ha, postemergence, 10 days; 0 to 100 scale, 0 no effect, 100 complete control
Measured Plant response rating, Ryegrass, Italian accompanies every entry in the list below.

Consider the reported Plant response rating, Ryegrass, Italian for these molecules:
{"molecule": "COC[C@H]1CN(C(=O)c2cc(-n3cnc(C(C)(C)C)n3)ccc2OC)c2cccc(Cl)c2O1 [Compound 230]", "Plant response rating, Ryegrass, Italian": 60}
{"molecule": "Cc1ccc(-n2cnc(C(C)C)n2)cc1C(=O)N1C[C@H](C)Oc2c1cccc2C(F)(F)F [Compound 170]", "Plant response rating, Ryegrass, Italian": 60}
{"molecule": "CC(C)c1ncn(-c2cc3c(c(C(=O)N4C[C@H](C)Oc5c(Cl)cccc54)c2)OCO3)n1 [Compound 258]", "Plant response rating, Ryegrass, Italian": 50}

Let us move to another entry and its Plant response rating, Ryegrass, Italian.
Request: Param item = C[C@H]1CN(C(=O)c2cc(-n3cncn3)cc3c2OCCO3)c2cccc(Cl)c2O1 [Compound 153] ; retrieve measured Plant response rating, Ryegrass, Italian.
Result: 90

---

System: ragweed
Assay: Test A postemergence
Type: in vivo, Ambrosia artemisiifolia
Conditions: 1000 g ai/ha, Postemergence; 0 to 100 scale
Threshold 40. Plant response rating, Ragweed below it: T. Plant response rating, Ragweed at it or above: F.

A selection of reference data follows.
{"molecule": "CC1CN(C(=O)c2cccc(-n3cncn3)c2)c2ccc(F)cc2O1 (centres unmarked)", "category-label": "T"}
{"molecule": "O=C(c1ccnc(-n2cncn2)c1)N1CC(C(F)(F)F)Oc2c(Cl)cccc21 (centres unmarked)", "category-label": "F"}
{"molecule": "Cc1cc(C(=O)N2CC(C)Oc3c(Cl)cccc32)cc(-n2cncn2)c1 (centres unmarked)", "category-label": "T"}
{"molecule": "CC1CN(C(=O)c2cccc(-n3cncn3)c2)c2cccc(Br)c2O1 (centres unmarked)", "category-label": "T"}
{"molecule": "C[C@H]1CN(C(=O)c2cccc(-n3cncn3)c2)c2cc([N+](=O)[O-])ccc2O1", "category-label": "T"}

Request: Hi there! Is Plant response rating, Ragweed for Cc1ccc(-n2cncn2)cc1C(=O)N1CC(C)Oc2c(Cl)cccc21 (centres unmarked) below 40, do you know?
Result: F

Request: Please give the result for CC1CN(C(=O)c2ccnc(-n3cncn3)c2)c2ccccc2O1 (centres unmarked) too.
Result: T

---

System: green foxtail
Test: Test C preemergence
Type: in vivo, Setaria viridis
Settings: Preemergence, 125 g ai/ha; 0 to 100 scale, 0 no effect, 100 complete control
Measured Plant response rating, Foxtail, Green accompanies every entry in the list below.

Request: Param item = CC(C)c1ncn(-c2cccc(C(=O)N3CC(C(F)(F)F)Oc4c(Cl)cccc43)c2)n1 (stereo not drawn) [Compound 348] ; retrieve measured Plant response rating, Foxtail, Green.
Result: 100

Request: Please give the result for COC[C@H]1CN(C(=O)c2cc(-n3cnc(C(C)C)n3)cc3c2OCCO3)c2cccc(Cl)c2O1 [Compound 395] too.
Result: 100

Request: Please give the result for COC[C@H]1CN(C(=O)c2cc(-n3cnc(C(C)(C)O)n3)ccc2OC)c2cccc(Cl)c2O1 [Compound 408] too.
Result: 100

Request: Please give the result for COC(C)(C)c1ncn(-c2ccc(C)c(C(=O)N3C[C@H](C)Oc4c(Cl)cccc43)c2)n1 [Compound 343] too.
Result: 100

Request: Please give the result for CC(=O)c1ncn(-c2ccc(C)c(C(=O)N3C[C@H](C)Oc4c(Cl)cccc43)c2)n1 [Compound 360] too.
Result: 100

// data source = patent US20260262643A1
